system: HEK-293T; assay: Multiplex assay against HEK293T; type: toxicity, cell-based; conditions: human, 24 h, 10 µM, compound concentration 10 uM, replicate 2
Property Measured: Population Hoechst High Intensity Objects (%)

INSERT INTO measurements (compound, test_target, unit_string, value) VALUES
  ('CC(C)(C)c1cc(NC(=O)Nc2ccc(-c3cn4c(n3)sc3cc(OCCN5CCOCC5)ccc34)cc2)no1', 'HEK-293T', '%', 9),
  ('CN1CCN(c2cc(-c3ccccc3)nc(N)n2)CC1', 'HEK-293T', '%', 9),
  ('Br.CS(=O)(=O)Nc1c(O)ccc2c1CCCC2C1=NCCN1 (centres undefined)', 'HEK-293T', '%', 11),
  ('CC(/C=C1\SC(=S)N(CCCC(=O)Nc2ccc(C(=O)O)c(O)c2)C1=O)=C\c1ccccc1', 'HEK-293T', '%', 6),
  ('Cc1c(CC(=O)O)c2cccnc2n1Cc1ccc(S(C)(=O)=O)cc1C(F)(F)F', 'HEK-293T', '%', 11),
  ('COc1ccccc1N1CCN(C[C@@H](C(=O)NC(C)(C)C)c2ccccc2)CC1.Cl.Cl', 'HEK-293T', '%', 14),
  ('CC(C)COc1ccc(CNC(=O)N(Cc2ccc(F)cc2)C2CCN(C)CC2)cc1', 'HEK-293T', '%', 34),
  ('CC(C)c1noc(N2CCC(COc3ccc(-c4ccc(S(C)(=O)=O)cc4)nc3)CC2)n1', 'HEK-293T', '%', 10),
  ('CCCCCC(O)/C=C/[C@H]1C(=O)CC(O)C1C/C=C\CCCC(=O)O (some centres undefined)', 'HEK-293T', '%', 9);

====

Item-by-item account of Population Normal (%)
tested on: HEK-293T; test: Multiplex assay against HEK293T; type: toxicity, cell-based; conditions: human, 48 h, 1 µM, compound concentration 1 uM, replicate 1
Property Measured: Population Normal (%)

INSERT INTO assay_data (molecule, value) VALUES
  ('COC[C@@H](c1ccc(C(F)(F)F)cc1)N1CCN(C2(C)CCN(C(=O)c3c(C)ncnc3C)CC2)C[C@@H]1C.O=C(O)/C=C\C(=O)O [VICRIVIROC MALEATE]', 97),
  ('COc1ccccc1N1CCN(C[C@@H](C(=O)NC(C)(C)C)c2ccccc2)CC1.Cl.Cl', 97),
  ('CC(C)(C)c1cc(NC(=O)Nc2ccc(-c3cn4c(n3)sc3cc(OCCN5CCOCC5)ccc34)cc2)no1 [QUIZARTINIB]', 96),
  ('N#Cc1cc(F)cc(-c2nc(-c3ccc(F)cn3)no2)c1', 98),
  ('CC(C)COc1ccc(CNC(=O)N(Cc2ccc(F)cc2)C2CCN(C)CC2)cc1 [PIMAVANSERIN]', 94),
  ('Cc1cnc(-c2cc(N3CCN(C(=O)CCS(C)(=O)=O)CC3)ncc2Cl)c(C)c1', 98),
  ('CCc1cc2cc(NS(=O)(=O)c3ccc(C#N)cc3)ccc2n(CC)c1=O', 97),
  ('CC(/C=C1\SC(=S)N(CCCC(=O)Nc2ccc(C(=O)O)c(O)c2)C1=O)=C\c1ccccc1', 97);

====

system: HEK-293T; assay: Multiplex assay against HEK293T; assay type: toxicity, cell-based; details: human, 24 h, 10 µM, compound concentration 10 uM, replicate 2
Item-by-item account of Population Healthy Nuclei (%)
Property Measured: Population Healthy Nuclei (%)

INSERT INTO measurements (molecule, value) VALUES
  ('CC(=O)Nc1cccc2c1c(Sc1ccc(Cl)cc1)c(C)n2CC(=O)O', 81),
  ('CN[C@@H](C)C(=O)N[C@H](C(=O)N1CCC[C@H]1C(=O)Nc1snnc1-c1ccccc1)C1CCCCC1', 68),
  ('COC[C@@H](c1ccc(C(F)(F)F)cc1)N1CCN(C2(C)CCN(C(=O)c3c(C)ncnc3C)CC2)C[C@@H]1C.O=C(O)/C=C\C(=O)O [VICRIVIROC MALEATE]', 77),
  ('CN1CCN(c2cc(-c3ccccc3)nc(N)n2)CC1', 79),
  ('Cc1onc(-c2ccccc2Cl)c1C(=O)N(C)c1ccc(Cl)cc1', 82),
  ('Cc1cnc(-c2cc(N3CCN(C(=O)CCS(C)(=O)=O)CC3)ncc2Cl)c(C)c1', 80),
  ('CC[C@@H](C)Nc1nc(C)nc2c(-c3ccc(OC)nc3C)c(C)nn12', 78),
  ('O=C(NCCN1CCC(n2c(=O)[nH]c3cc(Cl)ccc32)CC1)c1ccc(F)cc1 [HALOPEMIDE]', 70),
  ('Cc1noc(-c2ccc(-c3ccc(CC(=O)O)cc3)cc2)c1NC(=O)O[C@H](C)c1ccccc1Cl', 75);

====

system: Fibroblast; assay: Multiplex assay against human fibroblast; format: toxicity, cell-based; settings: 48 h, 1 µM, compound concentration 1 uM, replicate 2
Item-by-item account of Population Fragmented Nuclei (%)
Property Measured: Population Fragmented Nuclei (%)

INSERT INTO assay_data (molecule, unit_string, value) VALUES
  ('C[C@H](N)COC(=O)[C@@H](CCCCN)NC(=O)Cc1c(-c2ccc3ccccc3c2)[nH]c2c1ccc1ccccc12', '%', 30),
  ('CC[C@@H](C)Nc1nc(C)nc2c(-c3ccc(OC)nc3C)c(C)nn12 [PEXACERFONT]', '%', 40),
  ('CC(/C=C1\SC(=S)N(CCCC(=O)Nc2ccc(C(=O)O)c(O)c2)C1=O)=C\c1ccccc1', '%', 29),
  ('COc1cccc2c1c(NS(=O)(=O)c1ccc(Cl)s1)nn2Cc1cccc(CNC(=O)C(C)(C)O)c1', '%', 26);

====

tested on: U2OS; assay: Multiplex assay against U2OS; format: toxicity, cell-based; conditions: human, 48 h, 1 µM, compound concentration 1 uM, replicate 1
Item-by-item account of Population Tubulin-Different-Phenotype (%)
Property Measured: Population Tubulin-Different-Phenotype (%)

INSERT INTO results (molecule, test_target, unit_string, value) VALUES
  ('CN[C@@H](C)C(=O)N[C@H](C(=O)N1CCC[C@H]1C(=O)Nc1snnc1-c1ccccc1)C1CCCCC1 [GDC-0152]', 'U2OS', '%', 9),
  ('Cc1sc2c(c1C)C(c1ccc(Cl)cc1)=N[C@@H](CC(=O)NCCCCCCCCNC(=O)COc1cccc3c1C(=O)N(C1CCC(=O)NC1=O)C3=O)c1nnc(C)n1-2 (stereo partly drawn)', 'U2OS', '%', 2),
  ('CCCCC(=O)N(Cc1ccc(-c2ccccc2-c2nnn[nH]2)cc1)[C@H](C(=O)O)C(C)C', 'U2OS', '%', 2),
  ('O=C(NCCN1CCC(n2c(=O)[nH]c3cc(Cl)ccc32)CC1)c1ccc(F)cc1 [HALOPEMIDE]', 'U2OS', '%', 2),
  ('Cl.NCCc1ccc(O)c(O)c1 [DOPAMINE HYDROCHLORIDE]', 'U2OS', '%', 4),
  ('COC[C@@H](c1ccc(C(F)(F)F)cc1)N1CCN(C2(C)CCN(C(=O)c3c(C)ncnc3C)CC2)C[C@@H]1C.O=C(O)/C=C\C(=O)O [VICRIVIROC MALEATE]', 'U2OS', '%', 1),
  ('CC(/C=C1\SC(=S)N(CCCC(=O)Nc2ccc(C(=O)O)c(O)c2)C1=O)=C\c1ccccc1', 'U2OS', '%', 1),
  ('COc1cccc2c1c(NS(=O)(=O)c1ccc(Cl)s1)nn2Cc1cccc(CNC(=O)C(C)(C)O)c1', 'U2OS', '%', 2);

====

Item-by-item account of Population Tubulin-Different-Phenotype (%)
tested on: HEK-293T; experiment: Multiplex assay against HEK293T; format: toxicity, cell-based; settings: human, 48 h, 10 µM, compound concentration 10 uM, replicate 2
Property Measured: Population Tubulin-Different-Phenotype (%)

INSERT INTO assay_data (chemical_string, value) VALUES
  ('CC(/C=C1\SC(=S)N(CCCC(=O)Nc2ccc(C(=O)O)c(O)c2)C1=O)=C\c1ccccc1', 24),
  ('N#Cc1c(Oc2cccc(OS(=O)(=O)CCCC(F)(F)F)c2)cccc1C(F)(F)F', 23),
  ('Cc1cnc(-c2cc(N3CCN(C(=O)CCS(C)(=O)=O)CC3)ncc2Cl)c(C)c1', 15),
  ('O=C1[C@H](Cc2ccc(O)cc2)N2C(=O)CCN(C(=O)NCc3ccccc3)[C@H]2CN1Cc1cccc2ccccc12', 72),
  ('NCCc1cn(S(=O)(=O)c2c(Cl)nc3sccn23)c2ccccc12.O=C(O)C(=O)O', 52);

====

test system: U2OS; assay: Multiplex assay against U2OS; assay type: toxicity, cell-based; settings: human, 12 h, 10 µM, compound concentration 10 uM, replicate 1
Property Measured: Population Fragmented Nuclei (%)

INSERT INTO results (molecule, value) VALUES
  ('Cl.NCCc1ccc(O)c(O)c1 [DOPAMINE HYDROCHLORIDE]', 21),
  ('CC(C)COc1ccc(CNC(=O)N(Cc2ccc(F)cc2)C2CCN(C)CC2)cc1', 23),
  ('Cc1cccc(NC(=O)CN2CCC(c3ccccn3)CC2)c1.Cl.Cl', 34),
  ('CC(/C=C1\SC(=S)N(CCCC(=O)Nc2ccc(C(=O)O)c(O)c2)C1=O)=C\c1ccccc1', 28),
  ('C[C@H](N)COC(=O)[C@@H](CCCCN)NC(=O)Cc1c(-c2ccc3ccccc3c2)[nH]c2c1ccc1ccccc12', 23),
  ('NCCc1cn(S(=O)(=O)c2c(Cl)nc3sccn23)c2ccccc12.O=C(O)C(=O)O', 26),
  ('O=C(NCCN1CCC(n2c(=O)[nH]c3cc(Cl)ccc32)CC1)c1ccc(F)cc1 [HALOPEMIDE]', 19),
  ('CN1CCN(c2cc(-c3ccccc3)nc(N)n2)CC1', 30),
  ('CC[C@@H](C)Nc1nc(C)nc2c(-c3ccc(OC)nc3C)c(C)nn12', 26),
  ('O=C(CCCc1ccccc1)Nc1nc2ccccc2c(=O)s1', 31),
  ('Cc1onc(-c2ccccc2Cl)c1C(=O)N(C)c1ccc(Cl)cc1', 28),
  ('CC(=O)Nc1cccc2c1c(Sc1ccc(Cl)cc1)c(C)n2CC(=O)O', 25),
  ('CCc1cc2cc(NS(=O)(=O)c3ccc(C#N)cc3)ccc2n(CC)c1=O', 28),
  ('CN(C)C(=O)Cn1cc(-c2ccc(-c3cncc4ccccc34)cc2)cn1', 21),
  ('Cc1noc(-c2ccc(-c3ccc(CC(=O)O)cc3)cc2)c1NC(=O)O[C@H](C)c1ccccc1Cl', 29),
  ('COC[C@@H](c1ccc(C(F)(F)F)cc1)N1CCN(C2(C)CCN(C(=O)c3c(C)ncnc3C)CC2)C[C@@H]1C.O=C(O)/C=C\C(=O)O [VICRIVIROC MALEATE]', 26),
  ('CC(C)(C)c1cc(NC(=O)Nc2ccc(-c3cn4c(n3)sc3cc(OCCN5CCOCC5)ccc34)cc2)no1', 30),
  ('CN[C@@H](C)C(=O)N[C@H](C(=O)N1CCC[C@H]1C(=O)Nc1snnc1-c1ccccc1)C1CCCCC1', 39),
  ('CCCCC(=O)N(Cc1ccc(-c2ccccc2-c2nnn[nH]2)cc1)[C@H](C(=O)O)C(C)C', 35),
  ('Cc1cnc(-c2cc(N3CCN(C(=O)CCS(C)(=O)=O)CC3)ncc2Cl)c(C)c1', 24),
  ('N#Cc1cc(F)cc(-c2nc(-c3ccc(F)cn3)no2)c1', 33),
  ('CCCCCC(O)/C=C/[C@H]1C(=O)CC(O)C1C/C=C\CCCC(=O)O (some centres undefined)', 23),
  ('Cc1sc2c(c1C)C(c1ccc(Cl)cc1)=N[C@@H](CC(=O)NCCCCCCCCNC(=O)COc1cccc3c1C(=O)N(C1CCC(=O)NC1=O)C3=O)c1nnc(C)n1-2 (some centres undefined)', 31),
  ('N#Cc1c(Oc2cccc(OS(=O)(=O)CCCC(F)(F)F)c2)cccc1C(F)(F)F', 27);
